Reference for the values: patent US20250186404A1

- assay.system: UniProtKB O15427
- Sequence (O15427 2-465 limits assumed): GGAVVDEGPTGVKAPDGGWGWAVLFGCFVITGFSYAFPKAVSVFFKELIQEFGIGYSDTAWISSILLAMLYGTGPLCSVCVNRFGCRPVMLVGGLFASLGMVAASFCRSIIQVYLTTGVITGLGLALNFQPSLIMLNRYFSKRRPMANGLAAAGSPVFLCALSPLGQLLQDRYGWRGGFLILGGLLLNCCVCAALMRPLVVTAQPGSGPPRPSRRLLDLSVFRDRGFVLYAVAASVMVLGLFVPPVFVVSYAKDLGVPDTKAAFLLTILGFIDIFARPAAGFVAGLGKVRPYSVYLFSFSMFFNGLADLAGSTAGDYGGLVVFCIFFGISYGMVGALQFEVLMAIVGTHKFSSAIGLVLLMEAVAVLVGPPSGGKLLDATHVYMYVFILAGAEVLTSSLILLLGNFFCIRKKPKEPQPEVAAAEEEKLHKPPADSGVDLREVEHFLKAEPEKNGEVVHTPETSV
- Sequence (P26453 23-388 partner): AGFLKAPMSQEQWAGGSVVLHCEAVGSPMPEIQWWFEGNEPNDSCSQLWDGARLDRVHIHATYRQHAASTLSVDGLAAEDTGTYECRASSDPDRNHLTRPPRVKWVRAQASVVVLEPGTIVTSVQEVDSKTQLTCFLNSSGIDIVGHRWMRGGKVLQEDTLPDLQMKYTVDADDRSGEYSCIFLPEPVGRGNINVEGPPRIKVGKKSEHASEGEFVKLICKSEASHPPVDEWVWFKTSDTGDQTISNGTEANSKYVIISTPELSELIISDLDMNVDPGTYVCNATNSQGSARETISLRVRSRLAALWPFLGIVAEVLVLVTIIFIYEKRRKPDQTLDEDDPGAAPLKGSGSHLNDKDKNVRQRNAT
- assay.comment: Inhibition of 3BP import (rescue of viability) in MCT4-overexpressing INS-1 cells
- reported.conditions: INS-1 cells over-expressing human MCT4, rescue from LC100 3BP
pIC50: −log10 of the molar value.
measure.name: pIC50

Request: Name the recorded pIC50 for CC(C)OC(=O)Nc1ccc(-c2cnc([C@H]3CC[C@H](NC(=O)OC(C)C)CC3)s2)c(S(=O)(=O)NC(C)(C)C)c1 [Compound 67A] .
Result: 5.00 to 6.00

Request: Query O=C(Nc1ccccc1C(=O)O)c1cc(S(=O)(=O)c2ccccc2)ccc1Cl next
Result: < 4.48

* * *

- Tested on: Daudi (Burkitt Lymphoma) cells
- assay.comment: Intracellular Lactate Accumulation Assay (Lactate-Glo)
- Format: cell-based, human
- reported.conditions: Daudi human lymphoma cells, 4 h treatment, LactateGlo; read-out: induces lactate accumulation, IC50
measure.name: pIC50
// field semantics: pIC50 = negative decimal log of concentration (mol/L)

Request: May I ask what pIC50 has been recorded for CC(C)OC(=O)Nc1ccc(-c2cnc([C@H]3CC[C@H](NC(=O)OC(C)C)CC3)s2)c(S(=O)(=O)NC(C)(C)C)c1 [Compound 67A] ?
Result: 6.43
